Data origin, for the record: the RNAGym collection of RNA variant scans (doi:10.7554/elife.80360)

B1: CPEB3 Ribozyme (parent)
chain: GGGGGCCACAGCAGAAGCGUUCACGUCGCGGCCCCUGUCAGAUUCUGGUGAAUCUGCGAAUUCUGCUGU

- Variants of: B1
- Assay overview: self-cleavage, relative activity (ratio to wild type); higher = more cleavage; co-transcriptional
Please respond with reported self-cleavage for every item in the list.
Write no unit; give the number alone.

Task: Return reported self-cleavage; argument: C34G U61G
Result: 0.311

Task: Return reported self-cleavage; argument: A13C G47A
Result: 0.922

Task: Return reported self-cleavage; argument: G11U G65A
Result: 0.682

Task: Return reported self-cleavage; argument: U55A U62C
Result: 0.67

Task: Return reported self-cleavage; argument: C29G U38A
Result: 0.316

Task: Return reported self-cleavage; argument: G31U G56C
Result: 0.385

Task: Return reported self-cleavage; argument: G1A C66U
Result: 0.0966

Task: Return reported self-cleavage; argument: U20C U53G
Result: 0.167

Task: Return reported self-cleavage; argument: G47C A60G
Result: 1.01

Task: Return reported self-cleavage; argument: U43G U44G
Result: 0.83

Task: Return reported self-cleavage; argument: C35A A40C
Result: 0.288

Task: Return reported self-cleavage; argument: G11U C24A
Result: 0.308

Task: Return reported self-cleavage; argument: G41U G50U
Result: 0.845

Task: Return reported self-cleavage; argument: C9G G58A
Result: 1.01

Task: Return reported self-cleavage; argument: A13G C45G
Result: 0.847

Task: Return reported self-cleavage; argument: G14U G48C
Result: 0.907

Task: Return reported self-cleavage; argument: U64C U69G
Result: 1

Task: Return reported self-cleavage; argument: G48U G58C
Result: 0.999

Task: Return reported self-cleavage; argument: G56C G68C
Result: 0.907

Task: Return reported self-cleavage; argument: A15C C33U
Result: 0.911

Task: Return reported self-cleavage; argument: A23G A40U
Result: 0.665

Task: Return reported self-cleavage; argument: A16G G17C
Result: 0.131

Task: Return reported self-cleavage; argument: A23U U38A
Result: 0.95

Task: Return reported self-cleavage; argument: G2C G48A
Result: 0.0788

Task: Return reported self-cleavage; argument: A51G U61C
Result: 0.777

Task: Return reported self-cleavage; argument: C9A A52C
Result: 1.01

Task: Return reported self-cleavage; argument: C9U C54U
Result: 0.988

Task: Return reported self-cleavage; argument: G5C U62G
Result: 0.179

Task: Return reported self-cleavage; argument: U43A U61A
Result: 0.651

Task: Return reported self-cleavage; argument: G5U A59G
Result: 0.139

Task: Return reported self-cleavage; argument: G31A U64C
Result: 0.757

Task: Return reported self-cleavage; argument: U21G C45G
Result: 0.567

Task: Return reported self-cleavage; argument: G1C G19U
Result: 0.166

Task: Return reported self-cleavage; argument: G5C A15C
Result: 0.113

Task: Return reported self-cleavage; argument: G25A C57G
Result: 0.129

Task: Return reported self-cleavage; argument: C45A U49A
Result: 0.997

Task: Return reported self-cleavage; argument: G2C U44G
Result: 0.06

Task: Return reported self-cleavage; argument: C27U G50C
Result: 0.272

Task: Return reported self-cleavage; argument: A10G G47U
Result: 0.919

Task: Return reported self-cleavage; argument: A10C U43G
Result: 0.808

Task: Return reported self-cleavage; argument: G11A U62G
Result: 0.331

Task: Return reported self-cleavage; argument: U38G U46G
Result: 0.308

Task: Return reported self-cleavage; argument: U38A U53G
Result: 0.706

Task: Return reported self-cleavage; argument: U20A C35U
Result: 0.124

Task: Return reported self-cleavage; argument: G4A C63G
Result: 0.521
